Molecular target: hemoglobin (Homo sapiens, UniProt P68871+P69905)
Construct: The whole blood samples were collected in heparinized tubes from healthy volunteers; from tissue; host or cells: human whole blood (heparinized) from healthy volunteers
Sequence (P69905 2-142 limits assumed): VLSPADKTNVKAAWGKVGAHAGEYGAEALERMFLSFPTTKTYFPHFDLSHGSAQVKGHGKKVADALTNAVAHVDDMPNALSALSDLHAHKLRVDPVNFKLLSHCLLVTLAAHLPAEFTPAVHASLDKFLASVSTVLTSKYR
Sequence (P68871 2-147 limits assumed): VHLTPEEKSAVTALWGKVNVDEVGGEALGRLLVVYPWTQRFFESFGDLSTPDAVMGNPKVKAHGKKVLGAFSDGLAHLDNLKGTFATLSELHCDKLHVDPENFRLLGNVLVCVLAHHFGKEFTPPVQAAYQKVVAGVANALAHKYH
Assay: In vitro whole blood studies (multi-point tonometry and blood gas analysis)
Assay type: cell-based
Settings: Table III
quantity kind: Whole Blood Δp50 mm Hg

compound	Whole Blood Δp50 mm Hg
Cc1cc(C)cc(NC(=O)Cc2ccc(OC3(C(=O)N4CCC[C@H]4C(=O)O)CCCC3)cc2)c1 [Compound 56]	17 mm Hg

Value sought: Whole Blood Δp50 mm Hg, system hemoglobin (Homo sapiens, UniProt P68871+P69905), item Cc1cc(C)cc(NC(=O)Cc2ccc(OC3(C(=O)N[C@H](CO)C(=O)O)CCCC3)cc2)c1 [Compound 49] . Result: 16 mm Hg

Value sought: Whole Blood Δp50 mm Hg, system hemoglobin (Homo sapiens, UniProt P68871+P69905), item Cc1cc(C)cc(NC(=O)Cc2ccc(OC(C)(C)C(=O)NC(Cc3ccccc3)C(=O)O)cc2)c1 (stereo not drawn) [Compound 28] . Result: 20 mm Hg

###

Biological target: purified stripped human adult hemoglobin (Homo sapiens, UniProt P68871+P69905)
Construct: using purified stripped human adult hemoglobin as described previously; from tissue
Sequence (P69905 2-142 limits assumed): as the sequence (P69905 2-142 limits assumed) above
Sequence (P68871 2-147 limits assumed): as the sequence (P68871 2-147 limits assumed) above
Assay: Hemoglobin solution oxygen equilibrium studies (HEMOX-analyzer)
Type: biochemical
Conditions: Table IV; 0.5 mM effector, pH 7.2; n50 control 2.7
quantity kind: n50 (Hill coefficient at 50% saturation)
No unit in the answer, only the number.

molecule	n50 (Hill coefficient at 50% saturation)
CCC(C)(Oc1ccc(CC(=O)Nc2cc(C)cc(C)c2)cc1)C(=O)O (centres unmarked)	2.4
CC1CCC(Oc2ccc(CC(=O)Nc3ccc4c(c3)CCC4)cc2)(C(=O)O)C1 (centres unmarked)	2.6
COCC(C)(Oc1ccc(CC(=O)Nc2cc(C)cc(C)c2)cc1)C(=O)O (centres unmarked)	2.4

The value of n50 (Hill coefficient at 50% saturation) measured for the molecule Cc1cc(C)cc(NC(=O)Cc2ccc(OC3(C(=O)O)CCC(C)C3)cc2)c1 (centres unmarked) turned out to be 2.5

The value of n50 (Hill coefficient at 50% saturation) measured for the molecule CC(C)(Oc1ccc(CC(=O)Nc2ccc3c(c2)CCC3)cc1)C(=O)O [RSR46, reference compound] turned out to be 2.6

The value of n50 (Hill coefficient at 50% saturation) measured for the molecule Cc1cc(Cl)cc(NC(=O)Cc2ccc(OC3(C(=O)O)CCCC3C)cc2)c1 (centres unmarked) turned out to be 2.4

The value of n50 (Hill coefficient at 50% saturation) measured for the molecule Cc1cc(C)cc(NC(=O)Cc2ccc(OC3(C(=O)O)CCCC3C)cc2)c1 (racemic) turned out to be 2.3

The value of n50 (Hill coefficient at 50% saturation) measured for the molecule CC1CCCC1(Oc1ccc(CC(=O)Nc2ccc3c(c2)CCC3)cc1)C(=O)O (centres unmarked) turned out to be 2.6

The value of n50 (Hill coefficient at 50% saturation) measured for the molecule `Cc1cc(C)cc(NC(=O)Cc2ccc(OC3(C(=O)O)CCOCC3)cc2)c1` turned out to be 2.4

The value of n50 (Hill coefficient at 50% saturation) measured for the molecule Cc1cc(Cl)cc(NC(=O)Cc2ccc(OC3(C(=O)O)CCC(C)C3)cc2)c1 (centres unmarked) turned out to be 2.4

The value of n50 (Hill coefficient at 50% saturation) measured for the molecule Cc1cc(Cl)cc(NC(=O)Cc2ccc(OC(C)(C)C(=O)O)cc2)c1 [KDD86, reference compound] turned out to be 2.4

###

# reported melting point; entries follow

Solved cases (5 shown):
CSCC[C@@H](NC(=O)C1(Oc2ccc(CC(=O)Nc3cc(C)cc(C)c3)cc2)CCCC1)C(=O)O 54 to 55 °C
Cc1cc(C)cc(NC(=O)Cc2ccc(OC3(C(=O)N[C@@H](C)C(=O)O)CCCC3)cc2)c1 117 to 118 °C
Cc1cc(C)cc(NC(=O)Cc2ccc(OC3(C(=O)N[C@H](CC(C)C)C(=O)O)CCCC3)cc2)c1 119 to 120 °C
CC[C@H](C)[C@H](NC(=O)C1(Oc2ccc(CC(=O)Nc3cc(C)cc(C)c3)cc2)CCCC1)C(=O)O 127 to 128 °C
Cc1cc(C)cc(NC(=O)Cc2ccc(OC3(C(=O)N[C@@H](CCCCN)C(=O)O)CCCC3)cc2)c1 124 to 125 °C

The value of melting point measured for the compound `Cc1cc(C)cc(NC(=O)Cc2ccc(OC3(C(=O)N[C@H](Cc4c[nH]c5ccccc45)C(=O)O)CCCC3)cc2)c1` turned out to be 83 to 84 °C

The value of melting point measured for the compound `Cc1cc(C)cc(NC(=O)Cc2ccc(OC3(C(=O)N[C@H](CO)C(=O)O)CCCC3)cc2)c1` turned out to be 58 to 59 °C

###

Molecular target: hemoglobin (Homo sapiens, UniProt P68871+P69905)
Construct: The whole blood samples were collected in heparinized tubes from healthy volunteers; from tissue; host or cells: human whole blood (heparinized) from healthy volunteers
Assay: In vitro whole blood studies (multi-point tonometry and blood gas analysis)
Assay type: cell-based
Settings: Table III
Tag: Condition met if measured Whole Blood Δp50 mm Hg is not below 20 mm Hg, Condition not met if it is.

# count of solved cases: 2
compound	category label
CSCCC(NC(=O)C(C)(C)Oc1ccc(CC(=O)Nc2cc(C)cc(C)c2)cc1)C(=O)O (stereo not drawn) [Compound 33]	Condition not met
Cc1cc(C)cc(NC(=O)Cc2ccc(OC3(C(=O)N[C@@H](Cc4ccc(O)cc4)C(=O)O)CCCC3)cc2)c1	Condition met

[Q] Does the compound `Cc1cc(C)cc(NC(=O)Cc2ccc(OC3(C(=O)N[C@@H](CO)C(=O)O)CCCC3)cc2)c1` have recorded Whole Blood Δp50 mm Hg that is 20 mm Hg or more?
[A] Condition not met

[Q] Does the compound Cc1cc(C)cc(NC(=O)Cc2ccc(OC(C)(C)C(=O)NC(C)C(=O)O)cc2)c1 (stereo not drawn) [Compound 23] have recorded Whole Blood Δp50 mm Hg that is 20 mm Hg or more?
[A] Condition met

[Q] Does the compound `Cc1cc(C)cc(NC(=O)Cc2ccc(OC3(C(=O)N[C@H](C(=O)O)C(C)C)CCCC3)cc2)c1` have recorded Whole Blood Δp50 mm Hg that is 20 mm Hg or more?
[A] Condition met

[Q] Does the compound `CC[C@H](C)[C@H](NC(=O)C1(Oc2ccc(CC(=O)Nc3cc(C)cc(C)c3)cc2)CCCC1)C(=O)O` have recorded Whole Blood Δp50 mm Hg that is 20 mm Hg or more?
[A] Condition not met

[Q] Does the compound `Cc1cc(C)cc(NC(=O)Cc2ccc(OC3(C(=O)N[C@H](CCCCN)C(=O)O)CCCC3)cc2)c1` have recorded Whole Blood Δp50 mm Hg that is 20 mm Hg or more?
[A] Condition not met

[Q] Does the compound `Cc1cc(C)cc(NC(=O)Cc2ccc(OC3(C(=O)N[C@@H](CCC(=O)O)C(=O)O)CCCC3)cc2)c1` have recorded Whole Blood Δp50 mm Hg that is 20 mm Hg or more?
[A] Condition met

[Q] Does the compound `Cc1cc(C)cc(NC(=O)Cc2ccc(OC3(C(=O)N[C@H](Cc4ccccc4)C(=O)O)CCCC3)cc2)c1` have recorded Whole Blood Δp50 mm Hg that is 20 mm Hg or more?
[A] Condition met

[Q] Does the compound `Cc1cc(C)cc(NC(=O)Cc2ccc(OC3(C(=O)N[C@@H](CSCc4ccccc4)C(=O)O)CCCC3)cc2)c1` have recorded Whole Blood Δp50 mm Hg that is 20 mm Hg or more?
[A] Condition not met

[Q] Does the compound `Cc1cc(C)cc(NC(=O)Cc2ccc(OC3(C(=O)N[C@H](C)C(=O)O)CCCC3)cc2)c1` have recorded Whole Blood Δp50 mm Hg that is 20 mm Hg or more?
[A] Condition met

[Q] Does the compound Cc1cc(C)cc(NC(=O)Cc2ccc(OC(C)(C)C(=O)NC(C(=O)O)C(C)C)cc2)c1 (stereo not drawn) [Compound 24] have recorded Whole Blood Δp50 mm Hg that is 20 mm Hg or more?
[A] Condition met

[Q] Does the compound `Cc1cc(C)cc(NC(=O)Cc2ccc(OC3(C(=O)N[C@@H](CC(=O)O)C(=O)O)CCCC3)cc2)c1` have recorded Whole Blood Δp50 mm Hg that is 20 mm Hg or more?
[A] Condition met

[Q] Does the compound Cc1cc(C)cc(NC(=O)Cc2ccc(OC(C)(C)C(=O)N3CCCC3C(=O)O)cc2)c1 (stereo not drawn) have recorded Whole Blood Δp50 mm Hg that is 20 mm Hg or more?
[A] Condition not met

[Q] Does the compound `CSCC[C@@H](NC(=O)C1(Oc2ccc(CC(=O)Nc3cc(C)cc(C)c3)cc2)CCCC1)C(=O)O` have recorded Whole Blood Δp50 mm Hg that is 20 mm Hg or more?
[A] Condition met

[Q] Does the compound Cc1cc(C)cc(NC(=O)Cc2ccc(OC(C)(C)C(=O)NC(Cc3c[nH]c4ccccc34)C(=O)O)cc2)c1 (stereo not drawn) have recorded Whole Blood Δp50 mm Hg that is 20 mm Hg or more?
[A] Condition not met

FYI, the data here is from patent US6894185B2.
